Hi there, I'd appreciate the recorded % inhib. TNF-α for every entry that follows.
- System: TNF-α production
- Test method notes: In vitro inhibition of TNF-α production in human blood
- Format: cell-based
- Condition description: test dose 1 × 10^−7 M; human whole blood, lipopolysaccharide stimulation
A complete answer gives the number followed by the unit.

# % inhib. TNF-α of Cc1ccc(Nc2nc(-c3cnc4ccccn34)cs2)cn1.Cl.Cl.O.O [compound 577] = 49%

# % inhib. TNF-α of Br.Cc1cccc(Nc2nc(-c3cnc4cnccn34)cs2)c1.O [compound 115] = 53%

# % inhib. TNF-α of Br.FC(F)(F)c1cccc(Nc2nc(-c3cnc4ccccn34)cs2)c1 [Compound 81] = 47%

# % inhib. TNF-α of Br.FC(F)(F)c1cccc(Nc2nc(-c3cccnc3)cs2)c1 [compound 101] = 53%

# % inhib. TNF-α of Cl.c1ccc(Nc2nc(-c3c[nH]c4ccccc34)cs2)cc1 [Compound 9] = 39%

# % inhib. TNF-α of Cl.Clc1cccc(Nc2nc(-c3cnc4ccccn34)cs2)c1Cl.O [Compound 45] = 48%

# % inhib. TNF-α of Br.Cc1ncc(-c2csc(Nc3ccc(Cl)nc3)n2)n1C [Compound 527] = 43%

# % inhib. TNF-α of Cl.FC(F)(F)c1cccc(Nc2nc(-c3ccoc3)cs2)c1 [compound 518] = 44%

# % inhib. TNF-α of Cl.Clc1cccc(Nc2nc(-c3ncc4ccccn34)cs2)c1Cl [compound 410] = 43%

# % inhib. TNF-α of FC(F)(F)c1cccc(Nc2nc(-c3cncnc3)cs2)c1 [compound 517] = 57%

# % inhib. TNF-α of Brc1ccc(Nc2nc(-c3cnc4ccccn34)cs2)cc1.Cl [Compound 509] = 54%

# % inhib. TNF-α of Cl.FC(F)(F)c1cncc(Nc2nc(-c3cnc4ccccn34)cs2)c1 [compound 584] = 49%

# % inhib. TNF-α of Br.Cc1cccc(Nc2nc(-c3cnn4ccccc34)cs2)c1 [compound 119] = 49%

# % inhib. TNF-α of Cl.Cl.Clc1cccc(Nc2nc(-c3c[nH]c4ncccc34)cs2)c1Cl [Compound 166] = 37%

# % inhib. TNF-α of Cl.Fc1cccc(-c2csc(Nc3cccc(C(F)(F)F)c3)n2)c1 [Compound 643] = 59%

# % inhib. TNF-α of Cl.FC(F)(F)c1cccc(Nc2nc(-c3cnc4sccn34)cs2)c1 [compound 549] = 47%

# % inhib. TNF-α of COc1ccc(Nc2nc(-c3cnc4ccccn34)cs2)cn1 [compound 573] = 45%

# % inhib. TNF-α of Brc1cccc(Nc2nc(-c3cnc4ccccn34)cs2)c1 [Compound 466] = 49%

# % inhib. TNF-α of Cl.c1ccn2c(-c3csc(Nc4ccc5c(c4)CCO5)n3)cnc2c1 [compound 579] = 50%

# % inhib. TNF-α of Cc1ccc(Nc2nc(-c3cnc4ccccn34)cs2)cc1.Cl [Compound 39] = 59%

# % inhib. TNF-α of Cl.c1ccn2c(-c3csc(Nc4ccc5ncsc5c4)n3)cnc2c1 [compound 587] = 56%

# % inhib. TNF-α of Br.Cc1ccc(Nc2nc(-c3cnc4ncccn34)cs2)cc1Cl [compound 286] = 48%
